Tested on: antibiotic-susceptible and antibiotic-resistant S. aureus strains
Assay: Antimicrobial susceptibility assay, summary over S. aureus strains
Assay type: cell-based
Conditions: Staphylococcus aureus
VALUE TYPE: MIC

[[record]]
compound = "COc1ccc(OCCCOc2c(OC)ccc3cc4[n+](cc23)CCc2cc3c(cc2-4)OCO3)cc1"
value_type = "MIC"
result = "2 to 8 µg/mL"

[[record]]
compound = "COc1ccc2cc3[n+](cc2c1OC)CCc1cc2c(cc1-3)OCO2 [Berberine, Berberine chloride]"
value_type = "MIC"
result = "128 to 196 µg/mL"


Consider now this further compound.
Query: Form: Entry = COc1ccc2cc3[n+](cc2c1OCCCOc1ccccc1C)CCc1cc2c(cc1-3)OCO2 | System = antibiotic-susceptible and antibiotic-resistant S. aureus strains | MIC = ____
Response: 2 to 8 µg/mL
